- Tested on: Staphylococcus aureus
- TEST DETAILS: Antimicrobial activity against Staphylococcus aureus ATCC 9144 after 24 hr by agar streak dilution method
- Format: functional
- PARTICULARS: ATCC 9144, 24 h
OUTCOME MEASURE: MIC (µg/mL)
Report the figure in µg/mL without appending any unit label.

Query string: Report MIC for O=C1/C(=N\c2ccc(/N=C/c3ccc([N+](=O)[O-])cc3)cc2)c2ccccc2N1Cc1ccccc1 please.
Result string: 25.2

Query string: Could you do the same for O=C1/C(=N\c2ccc(/N=C/c3ccc(Br)cc3)cc2)c2ccccc2N1Cc1ccccc1 , please?
Result string: 19.3

Query string: Could you do the same for O=C1/C(=N\c2ccc(/N=C/c3ccc(Cl)cc3)cc2)c2ccccc2N1Cc1ccccc1 , please?
Result string: 10.4

Query string: Could you do the same for COc1ccc(/C=N/c2ccc(/N=C3\C(=O)N(Cc4ccccc4)c4ccccc43)cc2)cc1 , please?
Result string: 13.6

Query string: Could you do the same for COc1ccc(/C=N/c2ccc(/N=C3\C(=O)N(Cc4ccccc4)c4ccccc43)cc2)cc1OC , please?
Result string: 11.8

Query string: Could you do the same for O=C(O)c1cn(C2CC2)c2cc(N3CCNCC3)c(F)cc2c1=O , please?
Result string: 0.2

Query string: Could you do the same for CN(C)c1ccc(/C=N/c2ccc(/N=C3\C(=O)N(Cc4ccccc4)c4ccccc43)cc2)cc1 , please?
Result string: 22.8

Query string: Could you do the same for O=C1/C(=N\c2ccc(/N=C/c3ccccc3O)cc2)c2ccccc2N1Cc1ccccc1 , please?
Result string: 13.2

Query string: Could you do the same for COc1cc(/C=N/c2ccc(/N=C3\C(=O)N(Cc4ccccc4)c4ccccc43)cc2)ccc1O , please?
Result string: 18.2

====

- System: Micrococcus luteus
- TEST DETAILS: Antimicrobial activity against Micrococcus luteus ATCC 4698 at 100 ug/ml after 24 hr by paper disk diffusion method
- Format: functional
- PARTICULARS: ATCC 4698, 24 h, read-out: IZ
OUTCOME MEASURE: zone of inhibition at 100 µg/mL (mm)
Report the figure in mm without appending any unit label.

Query string: Report zone of inhibition at 100 µg/mL for O=C(O)c1cn(C2CC2)c2cc(N3CCNCC3)c(F)cc2c1=O [CIPROFLOXACIN] please.
Result string: 30

Query string: Could you do the same for O=C1/C(=N\c2ccc(/N=C/c3ccc(Cl)cc3)cc2)c2ccccc2N1Cc1ccccc1 , please?
Result string: 23

Query string: Could you do the same for COc1cc(/C=N/c2ccc(/N=C3\C(=O)N(Cc4ccccc4)c4ccccc43)cc2)ccc1O , please?
Result string: 19

Query string: Could you do the same for CN(C)c1ccc(/C=N/c2ccc(/N=C3\C(=O)N(Cc4ccccc4)c4ccccc43)cc2)cc1 , please?
Result string: 18

Query string: Could you do the same for COc1ccc(/C=N/c2ccc(/N=C3\C(=O)N(Cc4ccccc4)c4ccccc43)cc2)cc1 , please?
Result string: 20

Query string: Could you do the same for O=C1/C(=N\c2ccc(/N=C/c3ccccc3O)cc2)c2ccccc2N1Cc1ccccc1 , please?
Result string: 17

Query string: Could you do the same for O=C1/C(=N\c2ccc(/N=C/c3ccc(Br)cc3)cc2)c2ccccc2N1Cc1ccccc1 , please?
Result string: 20

Query string: Could you do the same for O=C1/C(=N\c2ccc(/N=C/c3ccc([N+](=O)[O-])cc3)cc2)c2ccccc2N1Cc1ccccc1 , please?
Result string: 13

Query string: Could you do the same for COc1ccc(/C=N/c2ccc(/N=C3\C(=O)N(Cc4ccccc4)c4ccccc43)cc2)cc1OC , please?
Result string: 17
